molecular target: T1, PGVVKSK(biotin) peptide (PGXVKSK(biotin), X = Val); assay: BLI, biotinylated peptide on streptavidin biosensor
T1 construct: also called Val at P3
T1 peptide: PGVVKSK(Biotin)
No end group written: not given here. *: point of attachment. Biotin = O=C1N[C@H]2[C@H](CS[C@H]2CCCCC(=O)*)N1
RECORDED ENDPOINT: % of steady-state BLI response relative to PGLVKSK(biotin)

Some solved entries appear below for comparison.
GID4 A252V-S253T-S283F triple mutant variant (residues 116-300), purified with N-terminal His-tag (designed binder, not shown: N-terminal six-histidine tag and TEV protease recognition site from the pET21(+) construct) GVATSLLYSGSKFRGHQKSKGNSYDVEVVLQHVDTGNSYLCGYLKIKGLTEEYPTLTTFFEGEIISKKHPFLTRKWDADEDVDRKHWGKFLAFYQYAKSFNSDDFDYEELKNGDYVFMRWKEQFLVPDHTIKDISGVTFAGFYYICFQKSAASIEGYYYHRSSEWYQFLNLTHVPEHSAPIYEFR | > 69%
wild-type human GID4 fragment (residues 116-300), purified with N-terminal His-tag (other, Expressed in E. coli BL21(DE3), nickel-column purified; also called wild-type GID4; native GID4; not shown: N-terminal six-histidine tag and TEV protease recognition site from the pET21(+) construct) GVATSLLYSGSKFRGHQKSKGNSYDVEVVLQHVDTGNSYLCGYLKIKGLTEEYPTLTTFFEGEIISKKHPFLTRKWDADEDVDRKHWGKFLAFYQYAKSFNSDDFDYEELKNGDYVFMRWKEQFLVPDHTIKDISGASFAGFYYICFQKSAASIEGYYYHRSSEWYQSLNLTHVPEHSAPIYEFR | > 50%

Exam item: So what's the measured % of steady-state BLI response relative to PGLVKSK(biotin) for this one? GID4 A252V-S253T double mutant variant (residues 116-300), purified with N-terminal His-tag (designed binder, also called A252V-S253T mutant; not shown: N-terminal six-histidine tag and TEV protease recognition site from the pET21(+) construct) GVATSLLYSGSKFRGHQKSKGNSYDVEVVLQHVDTGNSYLCGYLKIKGLTEEYPTLTTFFEGEIISKKHPFLTRKWDADEDVDRKHWGKFLAFYQYAKSFNSDDFDYEELKNGDYVFMRWKEQFLVPDHTIKDISGVTFAGFYYICFQKSAASIEGYYYHRSSEWYQSLNLTHVPEHSAPIYEFR
Marked response: > 69%

Exam item: Param item = GID4 A252V-S283F double mutant variant (residues 116-300), purified with N-terminal His-tag (designed binder, also called A252V-S283F mutant; not shown: N-terminal six-histidine tag and TEV protease recognition site from the pET21(+) construct) GVATSLLYSGSKFRGHQKSKGNSYDVEVVLQHVDTGNSYLCGYLKIKGLTEEYPTLTTFFEGEIISKKHPFLTRKWDADEDVDRKHWGKFLAFYQYAKSFNSDDFDYEELKNGDYVFMRWKEQFLVPDHTIKDISGVSFAGFYYICFQKSAASIEGYYYHRSSEWYQFLNLTHVPEHSAPIYEFR ; retrieve measured % of steady-state BLI response relative to PGLVKSK(biotin).
Marked response: > 69%

Exam item: Consider the binder GID4 A252V variant (residues 116-300), purified with N-terminal His-tag (designed binder, not shown: N-terminal six-histidine tag and TEV protease recognition site from the pET21(+) construct) GVATSLLYSGSKFRGHQKSKGNSYDVEVVLQHVDTGNSYLCGYLKIKGLTEEYPTLTTFFEGEIISKKHPFLTRKWDADEDVDRKHWGKFLAFYQYAKSFNSDDFDYEELKNGDYVFMRWKEQFLVPDHTIKDISGVSFAGFYYICFQKSAASIEGYYYHRSSEWYQSLNLTHVPEHSAPIYEFR and give its measured % of steady-state BLI response relative to PGLVKSK(biotin).
Marked response: > 60%
